Tested on: Metabolism protein genes
Assay: DNA chip mRNA expression in yeast, metabolism protein genes (Table 7)
Format: cell-based, Saccharomyces cerevisiae S288C
Conditions: yeast gene YDR123C
measured-attribute: level of expressed mRNA in the presence/in the absence of chemical substance
Answer with a bare number; do not write a unit.

# compound, test-target, data-value
data = [
    ("CCCCCCCCCCCCOS(=O)(=O)[O-].[Na+] [(18), sodium lauryl sulfate]", "Metabolism protein genes", 1.0),
    ("O=[N+]([O-])c1cc[n+]([O-])c2ccccc12 [(5), 4-nitroquinolin-N-oxide]", "Metabolism protein genes", 1.6),
    ("CN(C)C(=S)SSC(=S)N(C)C [(10), Tetramethylthiuram disulfide]", "Metabolism protein genes", 0.6),
    ("CCCCCCCCCCCCc1ccc(S(=O)(=O)[O-])cc1.[Na+] [(17), sodium dodecylbenzosulfonate]", "Metabolism protein genes", 1.3),
]

Now turn to the next compound.
What value of measured level of expressed mRNA in the presence/in the absence of chemical substance is listed for C[S+](C)[O-] [(15), dimethylsulfoxide] ?
1.2

* * *

Tested on: Metabolism protein genes
Test: DNA chip mRNA expression in yeast, metabolism protein genes (Table 7)
Format: cell-based, Saccharomyces cerevisiae S288C
Conditions: yeast gene YOL156W
Entry flag: true if level of expressed mRNA in the presence/in the absence of chemical substance reaches 1; false if it does not.

# compound, discrete-label
rows = [
    ("CCCCCCCCCCCCOS(=O)(=O)[O-].[Na+] [(18), sodium lauryl sulfate]", "false"),
    ("C=CC=O", "false"),
]

Okay, now this compound:
Confirm if level of expressed mRNA in the presence/in the absence of chemical substance reported for the compound `[Cl][Cd][Cl]` is 1 or above.
false

* * *

Tested on: Metabolism protein genes
Experiment: DNA chip mRNA expression in yeast, metabolism protein genes (Table 7)
Format: cell-based, Saccharomyces cerevisiae S288C
Conditions: yeast gene YLR058C
Method: Yeast (Saccharomyces cerevisiae S288C (α SUC2mal mel gap2 CUP1)) were incubated at 25° C. on YPD medium (yeast extract 1%, polypepton 2%, glucose 2%). One of toxic chemical substances was added to the cells at logarithmic growth phase, and the cells were further incubated for two hours. Cells were cultured without any chemical substance in the same condition, and were used as control. Concentrations of the chemical substances were defined to inhibit the growth of the yeast but not lead to death. […]
Reported values of level of expressed mRNA in the presence/in the absence of chemical substance for individual entries
Answer with a bare number; do not write a unit.

# compound, test-target, data-value
measured = [
    ("[Cl][Pb][Cl]", "Metabolism protein genes", 2.6),
    ("Cl[C@H]1[C@H](Cl)[C@@H](Cl)[C@@H](Cl)[C@H](Cl)[C@H]1Cl", "Metabolism protein genes", 0.5),
    ("[Cl][Hg][Cl]", "Metabolism protein genes", 5.5),
]

What value of measured level of expressed mRNA in the presence/in the absence of chemical substance is listed for CCCCCCCCCCCCc1ccc(S(=O)(=O)[O-])cc1.[Na+] [(17), sodium dodecylbenzosulfonate] ?
0.8

Same thing, different compound: COc1cc(CNC(=O)CCCCC=CC(C)C)ccc1O [(12), 8-methyl-N-vanillyl-6-nonenamide]
0.4

* * *

System: Metabolism protein genes
Test: DNA chip mRNA expression in yeast, metabolism protein genes (Table 7)
Format: cell-based, Saccharomyces cerevisiae S288C
Conditions: yeast gene YGL012W
measured-attribute: level of expressed mRNA in the presence/in the absence of chemical substance
Answer with a bare number; do not write a unit.

// solved cases for level of expressed mRNA in the presence/in the absence of chemical substance follow
# molecule, data-value
measured = [
    ("C[S+](C)[O-] [(15), dimethylsulfoxide]", 0.6),
    ("CCCCCCCCCCCCc1ccc(S(=O)(=O)[O-])cc1.[Na+] [(17), sodium dodecylbenzosulfonate]", 0.9),
    ("O=[N+]([O-])c1cc[n+]([O-])c2ccccc12 [(5), 4-nitroquinolin-N-oxide]", 1.5),
]

Now turn to the next molecule.
What value of measured level of expressed mRNA in the presence/in the absence of chemical substance is listed for COc1cc(CNC(=O)CCCCC=CC(C)C)ccc1O [(12), 8-methyl-N-vanillyl-6-nonenamide] ?
0.6
